These measurements were taken from patent US20210380703A1.

Molecular target: T1, biotinylated goat anti-human kappa light chain
T1 construct: positive control of the ELISA
Test: ELISA, positive control; further: test concentration or dose not given here

# BINDER, optical density [OD]
data = [
    ("374_C12 (antibody, V domains shown, Group III) VH: EVQLLESGGGLVQPGGSLRLSCAASGFTFSSYSMNWVRQAPGKGLEWVAGINYNGGYKSYADSVKGRFTISRDNSKNTLYLQMNSLRAEDTAVYYCARGANWHDTALDYWGQGTLVTVSS VL: DIQMTQSPSSLSASVGDRVTITCRASQSILTYLNWYQQKPGKAPKLVIYAATSRASGVPSRFSGSGSGTDFTLTISSLQPEDFATYYCQQSDNSPLTFGGGTKVEIK", 3.15),
    ("373_A12 (antibody, V domains shown, Group III) VH: EVQLLESGGGLVQPGGSLRLSCAASGFTFSSYSMNWVRQAPGKGLEWVSSINYNGGYTSYADSVKGRFTISRDNSKNTLYLQMNSLRAEDTAVYYCARGANWHDTALDYWGQGTLVTVSS VL: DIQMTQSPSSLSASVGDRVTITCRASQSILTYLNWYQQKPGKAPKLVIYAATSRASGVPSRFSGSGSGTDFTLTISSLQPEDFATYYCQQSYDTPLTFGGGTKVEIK", 3.09),
    ("373_D03 (antibody, V domains shown, Group III) VH: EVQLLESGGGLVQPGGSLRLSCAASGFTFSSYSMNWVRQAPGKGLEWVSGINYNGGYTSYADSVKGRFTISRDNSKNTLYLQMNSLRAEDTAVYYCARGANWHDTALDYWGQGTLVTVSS VL: DIQMTQSPSSLSASVGDRVTITCRASQSIVSYLNWYQQKPGKAPKLLIYAATSLASGVPSRFSGSGSGTDFTLTISSLQPEDFATYYCQQSYDTPLTFGGGTKVEIK", 3.18),
    ("375_B12 (antibody, V domains shown, Group III) VH: EVQLLESGGGLVQPGGSLRLSCAASGFTFDSYSMNWVRQAPGKGLEWVAGINYNGGYKSYADSVKGRFTISRDNSKNTLYLQMNSLRAEDTAVYYCARGANWHDTALDYWGQGTLVTVSS VL: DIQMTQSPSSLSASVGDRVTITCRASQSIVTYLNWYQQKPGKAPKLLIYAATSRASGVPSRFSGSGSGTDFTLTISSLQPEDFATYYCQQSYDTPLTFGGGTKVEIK", 3.28),
    ("370_D01 (antibody, V domains shown, Group III) VH: EVQLLESGGGLVQPGGSLRLSCAASGFTFSSYSMNWVRQAPGKGLEWVSSINYNGGYTGYADSVKGRFTISRDNSKNTLYLQMNSLRAEDTAVYYCARGANWHDTALDYWGQGTLVTVSS VL: DIQMTQSPSSLSASVGDRVTITCRASQSILSYLNWYQQKPGKAPKLLIYAATSRHSGVPSRFSGSGSGTDFTLTISSLQPEDFATYYCQQSYNTPLTFGGGTKVEIK", 3.66),
]
